All figures here come from patent EP4813991A1.

# tested-target: CDK12 (Homo sapiens)
# assay-protocol: Cellular CDK12 inhibitory activity assay (Ser2 phosphorylation of RNA polymerase II subunit B1 CTD in MDA-MB-231 cells)
# Assay type: cell-based
# Design: using MDA-MB-231 breast cancer cells; endogenous in cells; host or cells: MDA-MB-231
# condition-set: MDA-MB-231 cells, 6 hours treatment; read-out: pRpbl CTD S2 IC50
Parameter IC50: see the listing below.

Solved cases below.
Fc1cccc2[nH]c(CNc3cc(N4CCOCC4)nn4c(C(F)(F)F)cnc34)nc12 :: < 300 nM
CN1CC2CCC(C1)N2c1cc(NCc2nc3ccc(F)c(F)c3[nH]2)c2ncc(C(F)(F)F)n2n1 :: < 300 nM
CN1CC2CC(C1)N2c1cc(NCc2nc3cc(Cl)c(Cl)cc3[nH]2)c2ncc(C(F)(F)F)n2n1 :: < 300 nM

Now consider a different compound.
Problem: Look up IC50: N#CC1CCN(c2cc(NCc3nc4cc(Cl)c(Cl)cc4[nH]3)c3ncc(C(F)(F)F)n3n2)CC1
Result: < 300 nM

----------
# Test system: MDA-MB-436 cells
# assay-protocol: Breast cancer cell proliferation inhibitory activity, MDA-MB-436
# Type: cell-based
# condition-set: Homo sapiens, 72 hours, CellTiter Glo, relative IC50
assay-readout: IC50

As a guide, the following entries are already answered.
Cn1cc(-n2cnc3c(NCc4nc5cc(Cl)c(Cl)cc5[nH]4)nc(N4CCOCC4)nc32)cn1 [SR-4835, reference compound] :: 50 to 1000 nM
N#CC1CN(c2cc(NCc3nc4cc(Cl)c(Cl)cc4[nH]3)c3ncc(C(F)(F)F)n3n2)C1 [Example 30] :: ≤ 50 nM
CN1CCN(c2cc(NCc3nc4ccc(F)c(F)c4[nH]3)c3ncc(C(F)(F)F)n3n2)CC1 [Example 8] :: ≤ 50 nM
CN1CCN(c2cc(NCc3nc4cc(Cl)c(Cl)cc4[nH]3)c3ncc(C(F)(F)F)n3n2)CC1 [Example 29] :: ≤ 50 nM

Problem: MDA-MB-436 cells / IC50 / O=C(c1cc(Cc2n[nH]c(=O)c3ccccc23)ccc1F)N1CCN(C(=O)C2CC2)CC1 [Olaparib, reference compound] : value?
Result: > 1000 nM

----------
# Tested on: NCI-H23
# assay-protocol: Lung cancer cell proliferation inhibitory activity, NCI-H23
# Assay type: cell-based
# condition-set: Homo sapiens, 72 hours, Cell Counting Kit-8, relative IC50
# Description: Experiments were performed using three types of lung cancer cell lines to measure the cell proliferation inhibitory ability of the compounds of the present invention. […] After inserting the 96-well plate into an Envision plate reader […], luminescence signals were measured. Relative IC50 values were calculated by fitting a dose-response curve using Graphpad PRISM software. […]
pIC50: −log10 of the molar value.
assay-readout: pIC50

Problem: Quick one: pIC50 for CN1CCN(c2cc(NCc3nc4ccc(F)c(F)c4[nH]3)c3ncc(C(F)(F)F)n3n2)CC1 ?
Result: ≥ 6.70

----------
# tested-target: CDK12 (Homo sapiens, UniProt Q9NYV4)
# Sequence (Q9NYV4 whole entry, species assumed): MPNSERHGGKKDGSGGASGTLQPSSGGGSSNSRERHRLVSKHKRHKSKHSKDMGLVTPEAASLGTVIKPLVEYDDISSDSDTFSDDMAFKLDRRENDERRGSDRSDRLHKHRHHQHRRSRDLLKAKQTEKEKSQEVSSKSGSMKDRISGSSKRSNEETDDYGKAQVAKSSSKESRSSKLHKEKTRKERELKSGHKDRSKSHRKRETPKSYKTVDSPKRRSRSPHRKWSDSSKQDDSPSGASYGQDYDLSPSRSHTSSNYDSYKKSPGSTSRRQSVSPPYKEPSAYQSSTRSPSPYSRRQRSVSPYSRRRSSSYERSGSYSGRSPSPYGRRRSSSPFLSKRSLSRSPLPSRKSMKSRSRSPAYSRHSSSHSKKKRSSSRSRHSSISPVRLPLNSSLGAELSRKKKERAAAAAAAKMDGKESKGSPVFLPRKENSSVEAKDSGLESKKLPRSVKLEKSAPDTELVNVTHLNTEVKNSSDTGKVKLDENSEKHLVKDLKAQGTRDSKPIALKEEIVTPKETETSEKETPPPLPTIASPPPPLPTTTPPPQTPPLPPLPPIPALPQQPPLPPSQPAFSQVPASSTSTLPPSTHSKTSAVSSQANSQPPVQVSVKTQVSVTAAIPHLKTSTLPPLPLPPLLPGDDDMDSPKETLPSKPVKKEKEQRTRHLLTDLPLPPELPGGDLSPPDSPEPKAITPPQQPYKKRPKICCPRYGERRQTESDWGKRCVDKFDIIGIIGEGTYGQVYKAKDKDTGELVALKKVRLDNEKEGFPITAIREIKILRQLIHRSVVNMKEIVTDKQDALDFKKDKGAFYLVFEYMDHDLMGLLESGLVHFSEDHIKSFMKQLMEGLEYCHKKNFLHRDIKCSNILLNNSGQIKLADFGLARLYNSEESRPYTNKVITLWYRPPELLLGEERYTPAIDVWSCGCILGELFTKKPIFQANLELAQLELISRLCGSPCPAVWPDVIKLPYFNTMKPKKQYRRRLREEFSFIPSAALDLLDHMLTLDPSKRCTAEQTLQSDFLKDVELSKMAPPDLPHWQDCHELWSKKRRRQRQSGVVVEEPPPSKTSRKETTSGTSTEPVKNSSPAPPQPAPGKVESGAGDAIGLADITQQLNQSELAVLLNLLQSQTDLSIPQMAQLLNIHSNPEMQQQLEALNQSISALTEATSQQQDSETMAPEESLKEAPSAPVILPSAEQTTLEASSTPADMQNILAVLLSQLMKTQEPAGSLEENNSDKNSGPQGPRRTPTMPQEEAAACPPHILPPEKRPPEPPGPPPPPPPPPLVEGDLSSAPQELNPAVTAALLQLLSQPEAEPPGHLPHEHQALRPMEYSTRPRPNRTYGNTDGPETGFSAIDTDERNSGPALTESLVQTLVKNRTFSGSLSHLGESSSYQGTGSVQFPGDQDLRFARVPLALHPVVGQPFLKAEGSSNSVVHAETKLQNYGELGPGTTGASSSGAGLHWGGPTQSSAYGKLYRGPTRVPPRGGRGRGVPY
# Sequence (O75909 whole entry partner, species assumed): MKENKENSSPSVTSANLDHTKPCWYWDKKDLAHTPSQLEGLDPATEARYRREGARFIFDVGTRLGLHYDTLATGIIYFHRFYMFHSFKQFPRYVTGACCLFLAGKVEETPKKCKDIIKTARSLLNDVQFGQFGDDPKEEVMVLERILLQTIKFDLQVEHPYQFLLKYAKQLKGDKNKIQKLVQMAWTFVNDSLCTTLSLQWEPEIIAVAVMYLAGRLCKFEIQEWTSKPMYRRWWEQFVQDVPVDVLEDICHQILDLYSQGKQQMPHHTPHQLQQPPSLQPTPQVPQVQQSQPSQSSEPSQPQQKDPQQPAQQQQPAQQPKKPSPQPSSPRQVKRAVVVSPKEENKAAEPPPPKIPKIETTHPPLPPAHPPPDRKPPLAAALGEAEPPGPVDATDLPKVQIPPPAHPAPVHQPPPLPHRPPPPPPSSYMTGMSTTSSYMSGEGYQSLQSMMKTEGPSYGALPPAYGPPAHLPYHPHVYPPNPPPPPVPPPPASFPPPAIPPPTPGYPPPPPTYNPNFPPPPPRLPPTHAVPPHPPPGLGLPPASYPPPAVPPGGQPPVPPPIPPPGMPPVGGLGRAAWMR
# assay-protocol: CDK12 kinase inhibitory activity assay (33P-ATP filter binding)
# Assay type: biochemical
# condition-set: kinase reaction 120 minutes, 33P-gamma-ATP; read-out: CDK12 IC50
pIC50: −log10 of the molar value.
assay-readout: pIC50

N[C@@H]1CCN(c2cc(NCc3nc4ccc(F)c(F)c4[nH]3)c3ncc(C(F)(F)F)n3n2)C1 :: > 7.00
FC(F)(F)c1cnc2c(NCc3nc4cc(Cl)c(Cl)cc4[nH]3)cc(N3CC(NC4CC4)C3)nn12 :: < 6.30
FC(F)(F)c1cnc2c(NCc3cn4cccnc4n3)cc(N3CCOCC3)nn12 :: > 7.00

Moving on to the next compound.
Problem: Suppose we examine the compound FC(F)(F)c1cnc2c(NCc3nc4cc(Cl)c(Cl)cc4[nH]3)cc(N3C4CCC3CNC4)nn12 ; what pIC50 value has been reported?
Result: > 7.00

----------
# tested-target: CDK13 (Homo sapiens)
# assay-protocol: CDK13 kinase inhibitory activity assay (33P-ATP filter binding)
# Type: biochemical
# condition-set: kinase reaction 120 minutes, 33P-gamma-ATP; read-out: CDK13 IC50
# Protocol: Before initiating the CDK12 and CDK13 kinase reactions, each Example compound was dissolved and diluted in DMSO as a solvent across 9 concentration ranges at room temperature. […] Unreacted ^33P-ATP was removed by washing with 0.75 % phosphoric acid, and then the radioactive phosphorylated substrate remaining on the filter paper was measured. Kinase activity data were expressed as a percentage of the kinase activity remaining in the test sample compared to a DMSO control group. […]
assay-readout: IC50

Before answering, review these 3 worked examples.
N#CC1CN(c2cc(NCc3nc4ccc(Cl)c(Cl)c4[nH]3)c3ncc(C(F)(F)F)n3n2)C1 :: < 0.1 µM
Fc1ccc2nc(CNc3cc(N4C5CCC4CNC5)nn4c(C(F)(F)F)cnc34)[nH]c2c1F :: < 0.1 µM
FC(F)(F)c1cnc2c(NCc3cc4ccccn4n3)cc(N3CCOCC3)nn12 :: < 0.1 µM

Problem: Please give the measured IC50 for this compound: OC1CC2CCC(C1)N2c1cc(NCc2nc3cc(Cl)c(Cl)cc3[nH]2)c2ncc(C(F)(F)F)n2n1 (centres unmarked)
Result: < 0.1 µM

Problem: Given the entry Cc1ccnc2[nH]c(CNc3cc(N4CCOCC4)nn4c(C(F)(F)F)cnc34)nc12 , report its measured IC50.
Result: < 0.1 µM

Problem: # IC50 lookup, item CC(C)(O)C1CN(c2cc(NCc3nc4cc(Cl)c(Cl)cc4[nH]3)c3ncc(C(F)(F)F)n3n2)C1
Result: 0.1 to 0.5 µM

Problem: # get_value(readout='IC50', item= CN1CC2CCC(C1)N2c1cc(NCc2nc3ccc(F)c(F)c3[nH]2)c2ncc(C(F)(F)F)n2n1 )
Result: < 0.1 µM

Problem: Report IC50 for Fc1ccc2nc(CNc3cc(N4CCOCC4)nn4c(Cl)cnc34)[nH]c2c1F please.
Result: > 0.5 µM

----------
# tested-target: CDK13 (Homo sapiens, UniProt Q14004)
# Sequence (Q14004 whole entry, species assumed, one chain of several): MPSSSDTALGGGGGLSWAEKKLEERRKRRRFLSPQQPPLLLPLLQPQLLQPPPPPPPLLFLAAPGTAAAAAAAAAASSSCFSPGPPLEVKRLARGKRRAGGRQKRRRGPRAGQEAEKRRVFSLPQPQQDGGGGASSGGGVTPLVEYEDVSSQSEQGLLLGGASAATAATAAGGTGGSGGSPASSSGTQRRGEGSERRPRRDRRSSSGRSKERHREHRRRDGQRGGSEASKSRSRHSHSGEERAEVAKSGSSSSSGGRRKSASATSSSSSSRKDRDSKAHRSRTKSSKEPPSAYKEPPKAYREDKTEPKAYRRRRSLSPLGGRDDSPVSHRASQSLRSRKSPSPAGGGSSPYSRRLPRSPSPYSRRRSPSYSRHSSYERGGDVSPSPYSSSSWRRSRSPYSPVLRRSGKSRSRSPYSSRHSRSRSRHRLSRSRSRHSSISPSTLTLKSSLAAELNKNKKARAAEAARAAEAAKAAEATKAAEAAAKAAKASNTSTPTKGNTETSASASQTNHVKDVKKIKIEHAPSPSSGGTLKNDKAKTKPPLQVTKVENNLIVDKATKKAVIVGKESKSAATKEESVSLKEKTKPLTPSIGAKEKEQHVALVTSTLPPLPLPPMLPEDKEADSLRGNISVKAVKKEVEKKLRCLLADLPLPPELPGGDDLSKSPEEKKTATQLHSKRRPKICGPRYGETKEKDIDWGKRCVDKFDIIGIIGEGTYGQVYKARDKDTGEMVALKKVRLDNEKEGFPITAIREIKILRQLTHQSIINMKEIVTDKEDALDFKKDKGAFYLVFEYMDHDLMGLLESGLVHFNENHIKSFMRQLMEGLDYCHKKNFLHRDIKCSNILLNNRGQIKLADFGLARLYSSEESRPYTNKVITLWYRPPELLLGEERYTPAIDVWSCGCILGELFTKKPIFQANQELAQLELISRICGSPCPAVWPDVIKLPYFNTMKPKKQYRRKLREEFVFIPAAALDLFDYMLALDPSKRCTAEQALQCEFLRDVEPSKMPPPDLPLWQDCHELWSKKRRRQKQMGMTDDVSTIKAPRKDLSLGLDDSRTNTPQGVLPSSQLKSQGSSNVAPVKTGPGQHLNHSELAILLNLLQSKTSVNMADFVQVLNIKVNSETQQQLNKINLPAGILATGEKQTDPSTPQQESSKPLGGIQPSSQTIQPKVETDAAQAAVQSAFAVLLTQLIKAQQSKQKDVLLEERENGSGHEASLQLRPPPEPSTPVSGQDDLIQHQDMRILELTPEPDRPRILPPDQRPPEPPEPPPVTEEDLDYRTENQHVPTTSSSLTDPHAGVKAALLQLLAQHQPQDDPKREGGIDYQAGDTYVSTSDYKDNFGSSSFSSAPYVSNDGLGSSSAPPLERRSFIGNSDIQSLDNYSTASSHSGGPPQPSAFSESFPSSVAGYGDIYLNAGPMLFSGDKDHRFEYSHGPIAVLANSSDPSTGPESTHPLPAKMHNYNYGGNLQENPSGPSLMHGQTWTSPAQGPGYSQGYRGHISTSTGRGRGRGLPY
# assay-protocol: CDK13 kinase inhibitory activity assay (33P-ATP filter binding)
# Assay type: biochemical
# condition-set: kinase reaction 120 minutes, 33P-gamma-ATP; read-out: CDK13 IC50
# Method: Before initiating the CDK12 and CDK13 kinase reactions, each Example compound was dissolved and diluted in DMSO as a solvent across 9 concentration ranges at room temperature. […] Unreacted ^33P-ATP was removed by washing with 0.75 % phosphoric acid, and then the radioactive phosphorylated substrate remaining on the filter paper was measured. Kinase activity data were expressed as a percentage of the kinase activity remaining in the test sample compared to a DMSO control group. […]
assay-readout: IC50

CC#Cc1cnc2c(NCc3nc4ccc(F)c(F)c4[nH]3)cc(N3CCOCC3)nn12 [Example 24] :: 100 to 500 nM

Problem: # get_value(readout='IC50', item= FC(F)(F)c1cnc2c(NCc3nc4cc(Cl)c(Cl)cc4[nH]3)cc(N3CC4CCC(C3)N4)nn12 [Example 94] )
Result: < 100 nM

Problem: Which IC50 reading was recorded for the molecule O=C(O)C1CN(c2cc(NCc3nc4cc(Cl)c(Cl)cc4[nH]3)c3ncc(C(F)(F)F)n3n2)C1 [Example 64] ?
Result: < 100 nM

Problem: Need IC50, item NC1CCN(c2cc(NCc3nc4cc(F)c(F)cc4[nH]3)c3ncc(C(F)(F)F)n3n2)CC1 [Example 111]
Result: < 100 nM

----------
Recorded pIC50 values for a group of compounds are listed next.
# tested-target: CDK13 (Homo sapiens)
# assay-protocol: CDK13 kinase inhibitory activity assay (33P-ATP filter binding)
# Format: biochemical
# condition-set: kinase reaction 120 minutes, 33P-gamma-ATP; read-out: CDK13 IC50
# Method: Before initiating the CDK12 and CDK13 kinase reactions, each Example compound was dissolved and diluted in DMSO as a solvent across 9 concentration ranges at room temperature. […] Unreacted ^33P-ATP was removed by washing with 0.75 % phosphoric acid, and then the radioactive phosphorylated substrate remaining on the filter paper was measured. Kinase activity data were expressed as a percentage of the kinase activity remaining in the test sample compared to a DMSO control group. […]
pIC50: −log10 of the molar value.

// worked examples, pIC50 included
Cc1cc2[nH]c(CNc3cc(N4CCOCC4)nn4c(C(F)(F)F)cnc34)nc2cc1C(F)(F)F :: > 7.00
Cc1cc2nc(CNc3cc(N4CCOCC4)nn4c(C(F)(F)F)cnc34)[nH]c2cc1C :: > 7.00
OC1CN(c2cc(NCc3nc4cc(Cl)c(Cl)cc4[nH]3)c3ncc(C(F)(F)F)n3n2)C1 :: > 7.00
FC(F)(F)c1cnc2c(NCc3nc4ccccc4[nH]3)cc(N3CCOCC3)nn12 :: > 7.00
C[C@@H]1CN(c2cc(NCc3nc4cc(Cl)c(Cl)cc4[nH]3)c3ncc(C(F)(F)F)n3n2)C[C@H](C)N1 :: > 7.00
O=C(CO)NC1CN(c2cc(NCc3nc4cc(Cl)c(Cl)cc4[nH]3)c3ncc(C(F)(F)F)n3n2)C1 :: > 7.00
FC(F)(F)c1ccc2[nH]c(CNc3cc(N4CCOCC4)nn4c(C(F)(F)F)cnc34)nc2c1 :: > 7.00
CC1(O)CC2CCC(C1)N2c1cc(NCc2nc3cc(Cl)c(Cl)cc3[nH]2)c2ncc(C(F)(F)F)n2n1 (stereo not drawn) :: 6.30 to 7.00
OC1CC2(C1)CN(c1cc(NCc3nc4cc(Cl)c(Cl)cc4[nH]3)c3ncc(C(F)(F)F)n3n1)C2 :: > 7.00
CN1CC2CCC(C1)N2c1cc(NCc2nc3cc(Cl)c(Cl)cc3[nH]2)c2ncc(C(F)(F)F)n2n1 :: > 7.00

Problem: What does the record list as pIC50 for FC(F)(F)c1cnc2c(NCc3nc4cc(Cl)c(Cl)cc4[nH]3)cc(N3C4CCC3CNC4)nn12 ?
Result: > 7.00

Problem: Which pIC50 is listed for FC(F)(F)c1cnc2c(NCc3nc4cc(Cl)c(Cl)cc4[nH]3)cc(N3CC4(CNC4)C3)nn12 ?
Result: > 7.00

Problem: State the recorded pIC50 for this entry: FC(F)(F)c1cnc2c(NCc3nc4cc(Cl)c(Cl)cc4[nH]3)cc(N3CC4CCC3CO4)nn12 (stereo not drawn)
Result: 6.30 to 7.00

Problem: // pIC50 lookup, key: Fc1ccc2[nH]c(CNc3cc(N4CCOCC4)nn4c(C(F)(F)F)cnc34)nc2c1
Result: > 7.00

Problem: Could you share which pIC50 value was measured for FC(F)(F)c1cnc2c(NCc3nc4cc(Cl)c(Cl)cc4[nH]3)cc(N3CC4CCC(C3)O4)nn12 ?
Result: > 7.00

Problem: pIC50 lookup needed for FC(F)(F)c1cnc2c(NCc3nc4cc(Cl)c(Cl)cc4[nH]3)cc(N3CC(NC4CC4)C3)nn12 , thanks.
Result: 6.30 to 7.00

Problem: Report pIC50 for NC1CCN(c2cc(NCc3nc4ccc(F)c(F)c4[nH]3)c3ncc(C(F)(F)F)n3n2)CC1 please.
Result: > 7.00

Problem: Which measured pIC50 value corresponds to FC(F)(F)c1cc2nc(CNc3cc(N4CCOCC4)nn4c(C(F)(F)F)cnc34)[nH]c2cc1C(F)(F)F ?
Result: 6.30 to 7.00

Problem: If you can, please state the reported pIC50 value of C[C@@H]1CN(c2cc(NCc3nc4cc(F)c(F)cc4[nH]3)c3ncc(C(F)(F)F)n3n2)C[C@H](C)N1 .
Result: > 7.00

Problem: For Nc1ncc(-c2cc(NCc3nc4cc(F)c(F)cc4[nH]3)c3ncc(C(F)(F)F)n3n2)cn1 , what is its reported pIC50?
Result: > 7.00

Problem: Query: pIC50; subject: FC(F)(F)c1cnc2c(NCc3nc4cc(Cl)c(Cl)cc4[nH]3)cc(N3CCNCC3)nn12
Result: > 7.00

Problem: What does the record list as pIC50 for CC1(O)CN(c2cc(NCc3nc4cc(Cl)c(Cl)cc4[nH]3)c3ncc(C(F)(F)F)n3n2)C1 ?
Result: > 7.00

Problem: Tell me the measured pIC50 of Fc1cc2nc(CNc3cc(N4CCNCC4)nn4c(C(F)(F)F)cnc34)[nH]c2cc1F , please.
Result: > 7.00
